System: HEK-293T
TEST PROTOCOL: Multiplex assay against HEK293T
Type: toxicity, cell-based
CONDITION DETAILS: human, 48 h, 10 µM, compound concentration 10 uM, replicate 1
Please assign false whenever Total Cell Count is at or above 300, and true whenever it is below.

Some solved entries appear below for comparison.
> print(dat)
                                   compound  tested.on  class.label
1  CCOC(=O)Nc1cc(-c2ccc(C)c(NS(C)(=O)=O)c2)nn2c(C)nnc12   HEK-293T        false
2  COc1cc2ncn(-c3cc(OCc4ccccc4C(F)(F)F)c(C(N)=O)s3)c2cc1OC [GW843682X]   HEK-293T         true
3  Cl.O=C(O)c1cc(-c2ccc(C3CCNCC3)cc2)c2ccc(-c3ccc(C(F)(F)F)cc3)cc2c1   HEK-293T        false
4  O=c1cc(N2CCOCC2)oc2c(-c3cccc4c3sc3ccccc34)cccc12   HEK-293T         true
5  COC(=O)C1=C(C)NC(C)=C(C(=O)OCCCN2CCC(c3ccccc3)(c3ccccc3)CC2)[C@H]1c1cccc([N+](=O)[O-])c1 [NIGULDIPINE]   HEK-293T         true
6  CCCSc1nc(N[C@@H]2C[C@H]2c2ccc(F)c(F)c2)c2nnn([C@@H]3C[C@H](OCCO)[C@@H](O)[C@H]3O)c2n1 [TICAGRELOR]   HEK-293T         true

Lab note: next compound to report on.
[ask] A record lists CNC(=O)Nc1ccc(-c2nc(N3CC4CCC(C3)O4)c3cnn(C4CCC5(CC4)OCCO5)c3n2)cc1 . Is its Total Cell Count below 300?
[reply] true

###

So I've got a bunch of compounds here, and I need their Population Normal (%) values.
System: U2OS
TEST PROTOCOL: Multiplex assay against U2OS
Type: toxicity, cell-based
CONDITION DETAILS: human, 12 h, 10 µM, compound concentration 10 uM, replicate 1
One number for each entry, in %.

These solved cases illustrate the format of a correct answer.
> print(dat)
                                   compound          quantity.kind  unit.tag  assay.result
1  Cc1nc(N2CC[C@H](O)C2)ncc1-c1cc(C(F)(F)F)cc2[nH]ncc12  Population Normal (%)         %            98
2  Cl.O=C(O)c1cc(-c2ccc(C3CCNCC3)cc2)c2ccc(-c3ccc(C(F)(F)F)cc3)cc2c1  Population Normal (%)         %            97
3  C[C@]12CC[C@@H]3c4ccc(O)cc4CC[C@H]3[C@@H]1CC[C@@H]2O [ESTRADIOL]  Population Normal (%)         %            95

Lab note: each compound below needs its Population Normal (%) filled in.
1. CCc1ccc(OCc2ccccc2C(=O)Nc2ccc3nc(C)cc(N)c3c2)cc1.Cl
2. CN1CCN(Cc2ccc(Nc3ncc(Cl)c(Nc4ccccc4S(=O)(=O)N(C)C)n3)cc2)CC1 [DUBERMATINIB]
3. COc1cc2ncn(-c3cc(OCc4ccccc4C(F)(F)F)c(C(N)=O)s3)c2cc1OC [GW843682X]
4. COc1ccc(-c2ccc3ncc4c(c3c2)n(-c2ccc(N3CCNCC3)c(C(F)(F)F)c2)c(=O)n4C)cn1.O=C(O)/C=C\C(=O)O [BGT-226]

[reply]
[92, 87, 86, 86]

###

Test system: U2OS
TEST PROTOCOL: Multiplex assay against U2OS
Assay type: toxicity, cell-based
CONDITION DETAILS: human, 24 h, 10 µM, compound concentration 10 uM, replicate 2
QUANTITY KIND: Total Cell Count

These solved cases illustrate the format of a correct answer.
> print(dat)
                                   compound  assay.result
1  Cc1ccccc1C(c1ccccc1C)N1C2CCC1CC(O)(c1ccccc1)C2 (stereo unspecified)            85
2  O=c1[nH]c2ccccc2n1C1CCN(Cc2ccc(-c3[nH]c4cc5ncnc5cc4nc3-c3ccccc3)cc2)CC1           130
3  CC(C)OC(=O)N1CCC(Oc2ncnc3c2cnn3-c2ccc(S(C)(=O)=O)cc2F)CC1            93
4  CC(C)NC(=O)N1CC[C@H](NC2=Nc3cc(F)ccc3N(CC(F)F)c3ccc(Cl)cc32)C1            75
5  CCc1ccc(OCc2ccccc2C(=O)Nc2ccc3nc(C)cc(N)c3c2)cc1.Cl            47

Lab note: each compound below needs its Total Cell Count filled in.
1. Cc1ccc(C)c(Oc2ccncc2C(=O)N2CCN(C3CC3)c3ccccc32)c1
2. C=CC(=O)Nc1cccc(Oc2nc(Nc3ccc(N4CCN(C)CC4)cc3OC)ncc2Cl)c1
3. Cc1cccc(CN2CCN(C(c3ccccc3)c3ccc(Cl)cc3)CC2)c1.Cl.Cl (stereo unspecified)

[reply]
1: 65; 2: 120; 3: 67

Lab note: each compound below needs its Total Cell Count filled in.
1. O=c1cc(N2CCOCC2)oc2c(-c3cccc4c3sc3ccccc34)cccc12
2. CC(C)c1noc(N2CCC(COc3ccc(-c4ccc(S(C)(=O)=O)cc4)nc3)CC2)n1

[reply]
1. 86
2. 91

Kindly note the recorded Total Cell Count for CC(C)CC(=O)Nc1[nH]nc2c1CN(C(=O)C1CCN(C)CC1)C2(C)C , which is 172

###

Tested on: U2OS
TEST PROTOCOL: Multiplex assay against U2OS
Format: toxicity, cell-based
CONDITION DETAILS: human, 48 h, 1 µM, compound concentration 1 uM, replicate 2
QUANTITY KIND: Total Cell Count
One number for each entry.

These solved cases illustrate the format of a correct answer.
> print(dat)
                                   molecule  assay.result
1  O=c1cc(N2CCOCC2)oc2c(-c3cccc4c3sc3ccccc34)cccc12           103
2  COC(=O)C1=C(C)NC(C)=C(C(=O)OCCCN2CCC(c3ccccc3)(c3ccccc3)CC2)[C@H]1c1cccc([N+](=O)[O-])c1 [NIGULDIPINE]           932

Lab note: each molecule below needs its Total Cell Count filled in.
1. CN1CCN(Cc2ccc(Nc3ncc(Cl)c(Nc4ccccc4S(=O)(=O)N(C)C)n3)cc2)CC1 [DUBERMATINIB]
2. Cc1ccc2c(c1)c1c(n2CCc2ccc(C)nc2)CCN(C)C1 [LATREPIRDINE]

[reply]
1: 87; 2: 68

Lab note: each molecule below needs its Total Cell Count filled in.
1. CCc1nn(CCCN2CCN(c3cccc(Cl)c3)CC2)c(=O)n1CCOc1ccccc1.Cl [NEFAZODONE HYDROCHLORIDE]
2. CCc1ccc(OCc2ccccc2C(=O)Nc2ccc3nc(C)cc(N)c3c2)cc1.Cl
3. COc1cc2ncn(-c3cc(OCc4ccccc4C(F)(F)F)c(C(N)=O)s3)c2cc1OC [GW843682X]

[reply]
1. 67
2. 140
3. 91

###

Tested on: U2OS
TEST PROTOCOL: Multiplex assay against U2OS
Type: toxicity, cell-based
CONDITION DETAILS: human, 12 h, 10 µM, compound concentration 10 uM, replicate 2
QUANTITY KIND: Population Membrane Permeable-Phenotype (%)
Give bare numbers, in %.

These solved cases illustrate the format of a correct answer.
> print(dat)
                                   compound  tested.on  unit.tag  assay.result
1  COc1ccc(-c2ccc3ncc4c(c3c2)n(-c2ccc(N3CCNCC3)c(C(F)(F)F)c2)c(=O)n4C)cn1.O=C(O)/C=C\C(=O)O [BGT-226]       U2OS         %            24
2  CC(C)NC(=O)N1CC[C@H](NC2=Nc3cc(F)ccc3N(CC(F)F)c3ccc(Cl)cc32)C1       U2OS         %            13
3  CCCSc1nc(N[C@@H]2C[C@H]2c2ccc(F)c(F)c2)c2nnn([C@@H]3C[C@H](OCCO)[C@@H](O)[C@H]3O)c2n1 [TICAGRELOR]       U2OS         %            43

Lab note: each compound below needs its Population Membrane Permeable-Phenotype (%) filled in.
1. COC(=O)C1=C(C)NC(C)=C(C(=O)OCCCN2CCC(c3ccccc3)(c3ccccc3)CC2)[C@H]1c1cccc([N+](=O)[O-])c1 [NIGULDIPINE]
2. COc1cc(Nc2nccc(-c3cnn4nc(OC)ccc34)n2)cc(C(F)(F)F)c1
3. CC(C)Oc1ccccc1C(=O)Nc1ccccc1C(=O)Nc1cccc(S(=O)(=O)C(F)(F)F)c1
4. C=CC(=O)Nc1cccc(Sc2nc(Nc3ccc(N4CCN(C)CC4)cc3)ncc2Cl)c1

[reply]
1: 100; 2: 3; 3: 97; 4: 25

Lab note: each compound below needs its Population Membrane Permeable-Phenotype (%) filled in.
1. CNC(=O)Nc1ccc(-c2nc(N3CC4CCC(C3)O4)c3cnn(C4CCC5(CC4)OCCO5)c3n2)cc1
2. COc1ccccc1CN[C@H]1C2CCN(CC2)[C@H]1C(c1ccccc1)c1ccccc1 [CP-96345]
3. CCc1ccc(OCc2ccccc2C(=O)Nc2ccc3nc(C)cc(N)c3c2)cc1.Cl

[reply]
1: 36; 2: 1; 3: 100
